These data points were gathered from ChEMBL document CHEMBL4513216.

- Tested on: Plasmodium berghei
- protocol_summary: Screen against P. berghei liver stage (PbLuc), transformed with Luciferase, at 10uM
- Assay type: functional, HepG2
- condition_label: tested at 10 uM
About 8,600 (12%) of roughly 69,000 compounds showed an effect of 50% or more. The entries come from a sample that favours strong results as a whole.
Binning rule for recorded INHIBITION: bin A = under 10%, bin B = from 10% up to 40%, bin C = 40% and over

Req: Please indicate the class for Cc1cc(S(C)(=O)=O)c(C)c(S(=O)(=O)NCC2CCCO2)c1 (stereo not drawn) based on its INHIBITION.
Resp: bin C

Req: # bin lookup: classify CCS(=O)(=O)N1C[C@H]2CN(Cc3cccnc3)C(=O)[C@H]2C1 by its INHIBITION
Resp: bin A

Req: # classify by INHIBITION band: Cc1cc(N2CCOCC2)nc(N(C)CCO)c1C#N
Resp: bin B

Req: Could you tell me which band Cc1cc(CN(CC(N)=O)CC(C)C)no1 belongs to?
Resp: bin A
